molecular target: HapX(24-158) (Aspergillus fumigatus, UniProt Q4WER3 24-158); experiment: SPR; HapX alone, no CBC; SPR Biacore T200, 25 C; 10 mM phosphate pH 7.4, 2.7 mM KCl, 137 mM NaCl, 1 mM DTT, 0.005% surfactant P20, 10 ug/ml poly(dI-dC); biotin-DNA on streptavidin CM3 chip; details: protein: recombinant; tags: MBP fusion cleaved with TEV; extended N-terminus with TEV site; chain copies: 2; label: 5' biotin on strand 1; blunt
Sequence (Q4WER3 24-158): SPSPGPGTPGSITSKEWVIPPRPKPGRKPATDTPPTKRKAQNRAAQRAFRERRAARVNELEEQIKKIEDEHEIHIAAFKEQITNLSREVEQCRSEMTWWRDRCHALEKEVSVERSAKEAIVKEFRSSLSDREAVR
measured.endpoint: Kd (nM)

{"binder": "cccAp-369-37 (dsDNA) DNA 1: AAATCCACCAATCAACGCCTCCGTGATTGTCAGCAAT DNA 2: ATTGCTGACAATCACGGAGGCGTTGATTGGTGGATTT", "measured.endpoint": "Kd", "experimental.value": 171}
